# assay: CelltiterGlo viability cell assay
# Assay type: cell-based
# test conditions: human, HCC1143 breast cancer cells, HCC1143, 3 day, 0.03 uM; read-out: viability Replicate 1
measured property: viability at 3 day, 0.03 µM (%)
The response must be a number in % with no trailing unit.

Tell me the measured viability at 3 day, 0.03 µM of COc1cc(OC)cc(-c2noc(N3CCN(C)C4(CCN(c5ccnc(C)c5)CC4)C3)n2)c1 , please. 92.9

---

# assay: CelltiterGlo viability cell assay
# Format: cell-based
# test conditions: human, MDA-MB-436 breast cancer cells, MDA MB436, 6 day, 9.5 uM; read-out: viability Replicate 2
measured property: viability at 6 day, 9.5 µM
Answer format reminder: number followed by unit.

Tell me the measured viability at 6 day, 9.5 µM of COc1cc(OC)cc(-c2noc(N3CCN(C)C4(CCN(c5ccnc(C)c5)CC4)C3)n2)c1 , please. 71%

---

# assay: CelltiterGlo viability cell assay
# Assay type: cell-based
# test conditions: human, RPMI-8226 multiple myeloma cells, 8226, 6 day, 30 uM; read-out: viability Average
measured property: viability at 6 day, 30 µM (%)
The response must be a number in % with no trailing unit.

Tell me the measured viability at 6 day, 30 µM of COc1cc(OC)cc(-c2noc(N3CCN(C)C4(CCN(c5ccnc(C)c5)CC4)C3)n2)c1 , please. 70.7

---

# assay: CelltiterGlo viability cell assay
# Format: cell-based
# test conditions: human, MDA-MB-436 cells, MDA MB436, 3 day, 0.1 uM; read-out: viability Replicate 2
measured property: viability at 3 day, 0.1 µM
Answer format reminder: number followed by unit.

Tell me the measured viability at 3 day, 0.1 µM of COc1cc(OC)cc(-c2noc(N3CCN(C)C4(CCN(c5ccnc(C)c5)CC4)C3)n2)c1 , please. 102%

---

# assay: CelltiterGlo viability cell assay
# Format: cell-based
# test conditions: human, MDA-MB-436 breast cancer cells, MDA MB436, 6 day, 3 uM; read-out: viability Replicate 1
measured property: viability at 6 day, 3 µM (%)
The response must be a number in % with no trailing unit.

Tell me the measured viability at 6 day, 3 µM of COc1cc(OC)cc(-c2noc(N3CCN(C)C4(CCN(c5ccnc(C)c5)CC4)C3)n2)c1 , please. 115

---

# assay: CelltiterGlo viability cell assay
# Assay type: cell-based
# test conditions: human, SKMM2 cells (multiple myeloma line), SKMM2, 6 day, 0.03 uM; read-out: viability Replicate 3
measured property: viability at 6 day, 0.03 µM (%)
The response must be a number in % with no trailing unit.

Tell me the measured viability at 6 day, 0.03 µM of COc1cc(OC)cc(-c2noc(N3CCN(C)C4(CCN(c5ccnc(C)c5)CC4)C3)n2)c1 [MRK-740] , please. 98.8

---

# assay: CelltiterGlo viability cell assay
# Assay type: cell-based
# test conditions: human, CAL851 breast cancer cells, CAL851, 3 day, 1 uM; read-out: viability Average
measured property: viability at 3 day, 1 µM (%)
The response must be a number in % with no trailing unit.

Tell me the measured viability at 3 day, 1 µM of COc1cc(OC)cc(-c2noc(N3CCN(C)C4(CCN(c5ccnc(C)c5)CC4)C3)n2)c1 [MRK-740] , please. 98

---

# assay: CelltiterGlo viability cell assay
# Type: cell-based
# test conditions: human, SKMM2 multiple myeloma cells, SKMM2, 6 day, 1 uM; read-out: viability Average
measured property: viability at 6 day, 1 µM (%)
The response must be a number in % with no trailing unit.

Tell me the measured viability at 6 day, 1 µM of COc1cc(OC)cc(-c2noc(N3CCN(C)C4(CCN(c5ccnc(C)c5)CC4)C3)n2)c1 , please. 96.5

---

# assay: CelltiterGlo viability cell assay
# Type: cell-based
# test conditions: human, RPMI-8226 cells, 8226, 3 day, 0.03 uM; read-out: viability Replicate 3
measured property: viability at 3 day, 0.03 µM (%)
The response must be a number in % with no trailing unit.

Tell me the measured viability at 3 day, 0.03 µM of COc1cc(OC)cc(-c2noc(N3CCN(C)C4(CCN(c5ccnc(C)c5)CC4)C3)n2)c1 , please. 100

---

# assay: CelltiterGlo viability cell assay
# Type: cell-based
# test conditions: human, CAL851 breast cancer cells, CAL851, 6 day, 0.3 uM; read-out: viability Replicate 2
measured property: viability at 6 day, 0.3 µM (%)
The response must be a number in % with no trailing unit.

Tell me the measured viability at 6 day, 0.3 µM of COc1cc(OC)cc(-c2noc(N3CCN(C)C4(CCN(c5ccnc(C)c5)CC4)C3)n2)c1 [MRK-740] , please. 117

---

# assay: CelltiterGlo viability cell assay
# Assay type: cell-based
# test conditions: human, HCC1806 breast cancer cells, HCC1806, 6 day, 3 uM; read-out: viability Replicate 2
# Source text: Supplementary Figure 13. […] Viability of (a) Multiple Myeloma lines and (b) Breast Cancer cell lines following 3 or 6 days treatment with […] manufacturer’s instructions as described in the Supplementary methods. Data are normalized to DMSO control. N=3 biological replicates, +/- SEM. Source data are provided as a Source Data […] CelltiterGlo viability cell assay […]
measured property: viability at 6 day, 3 µM
Answer format reminder: number followed by unit.

Tell me the measured viability at 6 day, 3 µM of COc1cc(OC)cc(-c2noc(N3CCN(C)C4(CCN(c5ccnc(C)c5)CC4)C3)n2)c1 , please. 58.6%

---

# assay: CelltiterGlo viability cell assay
# Type: cell-based
# test conditions: human, MDA-MB-436 breast cancer cells, MDA MB436, 6 day, 3 uM; read-out: viability Replicate 3
measured property: viability at 6 day, 3 µM (%)
The response must be a number in % with no trailing unit.

Tell me the measured viability at 6 day, 3 µM of COc1cc(OC)cc(-c2noc(N3CCN(C)C4(CCN(c5ccnc(C)c5)CC4)C3)n2)c1 , please. 112

---

# assay: CelltiterGlo viability cell assay
# Assay type: cell-based
# test conditions: human, CAL851 breast cancer cells, CAL851, 6 day, 30 uM; read-out: viability Replicate 1
measured property: viability at 6 day, 30 µM (%)
The response must be a number in % with no trailing unit.

Tell me the measured viability at 6 day, 30 µM of COc1cc(OC)cc(-c2noc(N3CCN(C)C4(CCN(c5ccnc(C)c5)CC4)C3)n2)c1 , please. 22.8

---

# assay: CelltiterGlo viability cell assay
# Format: cell-based
# test conditions: human, SKMM2 cells, SKMM2, 3 day, 0.03 uM; read-out: viability Replicate 3
measured property: viability at 3 day, 0.03 µM (%)
The response must be a number in % with no trailing unit.

Tell me the measured viability at 3 day, 0.03 µM of COc1cc(OC)cc(-c2noc(N3CCN(C)C4(CCN(c5ccnc(C)c5)CC4)C3)n2)c1 , please. 103

---

# assay: CelltiterGlo viability cell assay
# Format: cell-based
# test conditions: human, HCC1806 breast cancer cells, HCC1806, 6 day, 0.01 uM; read-out: viability Replicate 1
measured property: viability at 6 day, 0.01 µM (%)
The response must be a number in % with no trailing unit.

Tell me the measured viability at 6 day, 0.01 µM of COc1cc(OC)cc(-c2noc(N3CCN(C)C4(CCN(c5ccnc(C)c5)CC4)C3)n2)c1 , please. 107

---

# assay: CelltiterGlo viability cell assay
# Type: cell-based
# test conditions: human, CAL851 breast cancer cells, CAL851, 3 day, 1 uM; read-out: viability Replicate 2
measured property: viability at 3 day, 1 µM (%)
The response must be a number in % with no trailing unit.

Tell me the measured viability at 3 day, 1 µM of COc1cc(OC)cc(-c2noc(N3CCN(C)C4(CCN(c5ccnc(C)c5)CC4)C3)n2)c1 [MRK-740] , please. 93.7

---

# assay: CelltiterGlo viability cell assay
# Format: cell-based
# test conditions: human, HCC1806 breast cancer cells, HCC1806, 3 day, 0.03 uM; read-out: viability Replicate 1
measured property: viability at 3 day, 0.03 µM
Answer format reminder: number followed by unit.

Tell me the measured viability at 3 day, 0.03 µM of COc1cc(OC)cc(-c2noc(N3CCN(C)C4(CCN(c5ccnc(C)c5)CC4)C3)n2)c1 , please. 99.9%

---

# assay: CelltiterGlo viability cell assay
# Format: cell-based
# test conditions: human, CAL851 breast cancer cells, CAL851, 3 day, 0.03 uM; read-out: viability Replicate 2
measured property: viability at 3 day, 0.03 µM (%)
The response must be a number in % with no trailing unit.

Tell me the measured viability at 3 day, 0.03 µM of COc1cc(OC)cc(-c2noc(N3CCN(C)C4(CCN(c5ccnc(C)c5)CC4)C3)n2)c1 [MRK-740] , please. 92.2
